TARGET_OR_SYSTEM: T1, human APRIL protein (human, UniProt O75888 105-250, limits assumed)
T1 construct: Bought protein; also called recombinant APRIL protein
T1 sequence (looked up): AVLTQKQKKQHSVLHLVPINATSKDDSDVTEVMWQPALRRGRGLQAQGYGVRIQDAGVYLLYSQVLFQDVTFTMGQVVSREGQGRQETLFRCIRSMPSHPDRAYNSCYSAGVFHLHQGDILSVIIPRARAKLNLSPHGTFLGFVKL
PROTOCOL_SUMMARY: ELISA, coated APRIL; antibody 0 nM (blank)
REPORTED_METRIC: OD450 nm

// worked examples, OD450 nm included
93C6F10D3 (antibody, V domains shown) VH: EVQLVESGGGLVTPGGSLKLSCVASGFAFSTYGMSWVRQTPERRLEWVAYISGGGGSIYYPDSVKGRFTISRDNAKNILYLQMSSLKSEDTAMYHCTRHPDLLLRYDYALDHWGQGTSVTVSS VL: DIQMTQSPASLSASVGETVTITCRASENIHIYLAWYQQKQGKSPQLLVYNGKTLADGVPSRFSGSGSGTQYSLKINTLQPEDFGNYYCQHFWNSTWTFGGGTKLEIK	0.0568
8E7D9C7F5 (antibody, V domains shown) VH: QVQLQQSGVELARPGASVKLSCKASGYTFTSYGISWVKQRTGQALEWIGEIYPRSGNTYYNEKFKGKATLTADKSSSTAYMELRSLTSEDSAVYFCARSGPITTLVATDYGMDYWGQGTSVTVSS VL: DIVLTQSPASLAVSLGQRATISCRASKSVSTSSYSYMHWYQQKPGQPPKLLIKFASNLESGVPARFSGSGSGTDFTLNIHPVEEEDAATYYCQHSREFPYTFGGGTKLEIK	0.0551
97E7B3F2 (antibody, V domains shown) VH: EVQLQQSGPELVKSGASVKISCKASGYTFTDHKMHWVKQSHGKSLEWIGYISPYNGGTGYNQKFKSKVTLTVDISSSTAYMELRSLTSEDSAVYYCARWGFYDVMDSWGQGTSVTVSS VL: DVLLTQTPLSLPVSLGDQASISCRSSQTIVHIIGDTYLEWYLQKPGQSPKLLIYKVSNRFSGVPDRFSGSGAGTDFTLKISRVEAEDLGVYYCFQGSHVPRTFGGGTKLEIK	0.0533
2-1G11 (antibody, human IgG1, V domains shown) VH: EVQLVESRGGVVQPGRSLRLSCAASGFTFSSYGMHWVRQAPGKGLEWVAVISYDGSNKYYADSVKGRFTISRDNSKNTLYLQMNSLRAEDAAVYYCARDRVDILTGYSIYGMDVWGQGTTVTVSS VL: EIVMTQSPATLSLSPGERATLSCRASQSVSSYLAWYQQKPGQAPRLLIYDASKRATGIPARFSGSGSGTDFTLTISSLEPEDFAVYYCQQRSNWPLTFGGGTKVEIK	0.0847
20D1B6E9E5 (antibody, V domains shown) VH: EVQLQQSVAELVRPGASVKLSCTASDFNIKNTYIHWVKQRPEQGLEWIGRIDPVNGNTKYAPKFQDKATIIVDTYSNTAYLQLSSLASEDTAVYYCARWPITTIVATDWYFDVWGTGTTVTVSS VL: DVLMTQTQLALPVRLGEQASISCRSSQSIVNSNGNTYLEWYLQKPGQSPKLLIYKVSNRFSGVPDRFSGSGSGTDFTLKISRVEAEDLGVYYCFQGSHVPWTFGGGTKLEIK	0.055
78C11D2D12 (antibody, V domains shown, Mouse hybridoma antibody purified on Protein G) VH: QVQLQQSGAELVRPGTSVKISCKASGYAFTNYWLGWVKQRPGHGLEWIGDIYPGSGNTYYNEKFKGKATLTADKSSSTAYMQLSSLTSEDSAVFFCAAYLYAMDYWGQGTSVTVSS VL: QIVLTQSPAIMSASPGEKVTITCSASSSVSYMHWFQQKPGTSPKLWIYSASNLASGVPARFSGSGSGTSYSLTISRMEAEDAATYYCQQRGSYPFTFGSGTKLEIK	0.0565
89A2G5E7 (antibody, V domains shown, Mouse hybridoma antibody purified on Protein G) VH: QVQLKESGPGLVAPSQSLSITCTVSGLSLNSHDISWIRQPPGKGLEWLGVIWSGGGTKYNSAFMSRLSISKDNSKSQVFLKMNSLHTDDTAIYYCVRTPSMITYSAMDYWGQGTSVTVSS VL: EIVLTQSPALMAASPGEKVTITCSVSSSISSRNLHWYQQKSQTSPKAWIHATSNLASGVPVRFSGSGSGTSYSLTISSMEAEDAATYYCQQWSSYPLTFGSGTKLEIK	0.0655

Read the next record carefully.
Data request: Record request: OD450 nm value, item L1D12 (antibody, human IgG1, V domains shown, also called LID12) VH: QVQLVQSGGGLVQPGGSLRLSCAASGFTVSSNYMSWVRQAPGKGLEWVSVIYSGGSTYYADSVKGRFTISRDNSKNTLYLQMNSLRAEDTAVYYCARGFHDILTGYGMDVWGQGTTVTVSS VL: SSELTQDPAVSVALGQTVRITCQGDSLRNYYAGWYQQKPGQAPVLVIYGKNNRPSGIPDRFSGSSSGNTASLTITGTQAEDEADYYCSSRDNSGTHLVEFGGGTKLTVL
Data returned: 0.0625
